Provide the recorded protein stability index for the entries that follow.
B1: ZBED3 (parent)
chain: GPGFHAGTSALWRHLRSAHRRELE

variants of: B1; test: protein stability index of a GFP-peptide fusion (GPS, HEK-293T) (PSI 1-6); higher = more stable; conditions: c terminus: a fixed tail appended;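 further: lentivirally expressed fusions sorted by FACS into six bins by GFP to DsRed ratio, PSI derived from sequencing read proportions per bin multiplied by bin number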
Form field (numeric): enter value without unit.

Reported protein stability index for T8F was 1.64

Documented protein stability index of E24Y : 2.42

According to the records, this variant S17M displays protein stability index of 2.25

For reference, reported protein stability index for R21N stands at 1.77

So for G1N , the logged protein stability index turned out to be 3.45

So, L23G ? Its protein stability index was 2.32

The reported protein stability index of the variant W12N was 2.3

protein stability index in this record for L11Y : 3.19

Looking up A10W , I found its protein stability index recorded as 2.38

The variant identified as L23T registered its protein stability index at 1.97

Recorded protein stability index (variant A6Y ): 2.59

Memo: H5I , reported protein stability index: 2.15

Short answer for P2H : protein stability index was 3.39

The measured protein stability index associated with P2Y reads 2.54

Field protein stability index (entry S9W ) reads 2.05

Kindly note the recorded protein stability index for H19I , which is 2.3

// sample L15Q , its protein stability index was 1.78

H19A yielded protein stability index of 2.74

Measured protein stability index of L23D : 1.95

For reference, reported protein stability index for A6I stands at 2.06

Lab note: measured protein stability index of G1D was 3.87

Reported protein stability index ( R20M ) = 2.17

Kindly note the recorded protein stability index for A18E , which is 3.1

// recorded protein stability index for G1W : 2.7

# variant G3T ; its protein stability index = 3.75

protein stability index in this record for G7T : 2.21

Value of protein stability index reported for the variant W12M is 1.84

Per the record, H19D has protein stability index of 2.03

// E24K : protein stability index value = 3.2

get_value(item= R20E , readout=protein stability index) returns 2.08

Lab note: A6L gave protein stability index of 2.24

Please fill in: protein stability index reported for T8G = 2.26

Data point: H5K ; protein stability index = 2.67

protein stability index reported for this variant G3V : 3.1

The variant T8Y showed protein stability index equal to 2.37

Please fill in: protein stability index reported for H19K = 2.54

Record L11Q , field protein stability index: 2.54

Input R13M . Output protein stability index: 1.99

Query L11W yields protein stability index of 2.85

In plain terms, G7K has a documented protein stability index of 2.01

Please fill in: protein stability index reported for A6H = 2.12

protein stability index measured on A10S = 2.52

Sample A10G ; protein stability index observed: 2.67

Recorded result, R13V , protein stability index: 1.88

Short answer for G3M : protein stability index was 3.16

Value of measured protein stability index for the entry G7W : 1.52

Reported protein stability index of W12Q : 2.72

Record summary for R13P : reported protein stability index = 2.12

Value of measured protein stability index for the entry A18K : 2.81

Form field protein stability index, entry R13Y : 2.1

variant L15M , protein stability index observed: 2.7

The recorded protein stability index for W12E is 3.17

# protein stability index (variant: A10E ) is 4.86

Per the records, this variant ( A10P ) has protein stability index equal to 2.28

protein stability index measured on F4A = 3.15

Summary for this variant, R21I : protein stability index is 1.97

Recorded result, S17R , protein stability index: 2.42

Value of measured protein stability index for the entry G3I : 2.5

Reported protein stability index of R20F : 2.36

Entry H5F — recorded protein stability index = 2.88

Reported protein stability index of A6F : 1.83

In plain terms, E22D has a documented protein stability index of 2.06

The recorded protein stability index for E22V is 2.44

# protein stability index of A6T = 2.33

Just so you know, measured protein stability index for R16I came out at 2.12

# protein stability index (variant: P2G ) is 3.2

Measured protein stability index of T8M : 2.37

Reported protein stability index of R13G : 1.81

Lab note: R21K gave protein stability index of 2.51

Documented protein stability index of T8K : 2.5

In plain terms, G7P has a documented protein stability index of 2.23

# variant A6R ; its protein stability index = 3.08

Note to self: protein stability index recorded for L15I was 2.3

R16V has a reported protein stability index of 1.84

Query L23E yields protein stability index of 2.07

Looking up L15T , I see its protein stability index listed as 2.05

According to the records, this variant E22I displays protein stability index of 1.95

Sure, the documented protein stability index for H5W is 2.76

Reported protein stability index ( E24D ) = 1.94

Just so you know, measured protein stability index for E22L came out at 2.4

Reported protein stability index for L23M was 2.32
